# cond: human gut metagenome, 24 h, 2 µM; note: call rule not given here
recorded-endpoint: Bacterial Biotransformation

molecule: C=C[C@H]1CN2CC[C@H]1C[C@H]2[C@H](O)c1ccnc2ccc(OC)cc12.C=C[C@H]1CN2CC[C@H]1C[C@H]2[C@H](O)c1ccnc2ccc(OC)cc12.O.O.O=S(=O)(O)O [QUININE SULFATE]
Bacterial Biotransformation: Compound NOT metabolized
--
molecule: CCCC(C)(COC(N)=O)COC(=O)NC(C)C (configuration not stated) [CARISOPRODOL]
Bacterial Biotransformation: Compound metabolized
--
molecule: CCOC(=O)[C@H](CCc1ccccc1)N[C@@H](C)C(=O)N1Cc2ccccc2C[C@H]1C(=O)O
Bacterial Biotransformation: Compound NOT metabolized
--
molecule: CNNCc1ccc(C(=O)NC(C)C)cc1 [PROCARBAZINE]
Bacterial Biotransformation: Compound NOT metabolized
--
molecule: CN(C)C(=O)Oc1cc(OC(=O)N(C)C)cc(C(O)CNC(C)(C)C)c1 (configuration not stated) [BAMBUTEROL]
Bacterial Biotransformation: Compound NOT metabolized
--
molecule: CCOC(=O)C1=C(C)NC(C)=C(C(=O)OC)C1c1cccc([N+](=O)[O-])c1 (configuration not stated) [NITRENDIPINE]
Bacterial Biotransformation: Compound metabolized
--
molecule: COCCCC/C(=N\OCCN)c1ccc(C(F)(F)F)cc1.O=C(O)/C=C\C(=O)O [FLUVOXAMINE MALEATE]
Bacterial Biotransformation: Compound NOT metabolized
--
molecule: CC(C)(C)NC[C@H](O)COc1nsnc1N1CCOCC1.O=C(O)/C=C\C(=O)O [TIMOLOL MALEATE]
Bacterial Biotransformation: Compound NOT metabolized

We next turn to a different molecule, shown below.
Can you look up the measured Bacterial Biotransformation of O=C1N=C([O-])NC1(c1ccccc1)c1ccccc1.[Na+] [PHENYTOIN SODIUM] for me?
Compound NOT metabolized
